Each entry below carries its recorded IC50.
measured on: EGFR wildtype (WT) (Homo sapiens, UniProt P00533)
Sequence (P00533 25-1210): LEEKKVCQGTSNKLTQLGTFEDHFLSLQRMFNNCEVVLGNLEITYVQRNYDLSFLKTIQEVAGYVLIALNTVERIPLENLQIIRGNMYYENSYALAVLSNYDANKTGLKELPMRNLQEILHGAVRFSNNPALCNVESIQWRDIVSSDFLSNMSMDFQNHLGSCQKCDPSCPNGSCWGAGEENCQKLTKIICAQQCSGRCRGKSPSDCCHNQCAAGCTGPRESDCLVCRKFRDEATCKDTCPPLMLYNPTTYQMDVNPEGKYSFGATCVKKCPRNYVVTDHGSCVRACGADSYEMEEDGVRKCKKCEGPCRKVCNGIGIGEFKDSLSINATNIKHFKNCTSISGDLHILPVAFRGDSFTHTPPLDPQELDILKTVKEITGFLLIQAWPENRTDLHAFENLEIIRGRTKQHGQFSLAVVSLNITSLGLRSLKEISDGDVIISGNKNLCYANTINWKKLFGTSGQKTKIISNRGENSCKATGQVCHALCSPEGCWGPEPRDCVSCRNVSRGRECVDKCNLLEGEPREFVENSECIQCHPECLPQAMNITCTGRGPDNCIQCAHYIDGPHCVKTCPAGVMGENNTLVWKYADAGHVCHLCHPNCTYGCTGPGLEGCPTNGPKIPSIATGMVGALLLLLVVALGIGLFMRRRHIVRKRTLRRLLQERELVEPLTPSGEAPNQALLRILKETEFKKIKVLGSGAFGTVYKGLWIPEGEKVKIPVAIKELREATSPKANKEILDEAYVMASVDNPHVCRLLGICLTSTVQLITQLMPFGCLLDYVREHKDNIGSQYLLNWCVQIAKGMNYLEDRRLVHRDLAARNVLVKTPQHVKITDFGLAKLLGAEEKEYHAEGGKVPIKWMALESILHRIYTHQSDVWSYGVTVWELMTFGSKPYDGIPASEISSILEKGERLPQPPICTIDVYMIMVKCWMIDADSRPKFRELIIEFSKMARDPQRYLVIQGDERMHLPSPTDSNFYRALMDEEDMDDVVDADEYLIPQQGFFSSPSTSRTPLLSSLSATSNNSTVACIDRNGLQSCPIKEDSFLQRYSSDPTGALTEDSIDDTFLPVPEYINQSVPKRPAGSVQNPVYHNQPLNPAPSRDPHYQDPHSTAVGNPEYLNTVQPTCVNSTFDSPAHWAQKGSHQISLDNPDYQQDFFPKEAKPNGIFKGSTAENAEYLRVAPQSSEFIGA
experiment description: Biochemical EGFR kinase inhibition assay (Lance Ultra TR-FRET), wildtype
measurement setup: IC50 WT (nM), 100 μM ATP

Solved entries:
For CC1(CO)CCN(c2cc(Nc3ccnc(-c4cnn(S(=O)(=O)C5CC5)c4)n3)ncc2C#CC2(O)CCOC2)CC1 (stereo not shown) [Example 355] the compound record lists IC50 as 1740 nM

Value of measured IC50 for the entry CC1OCCC1C#Cc1cnc(Nc2ccnc(-c3cnn(S(=O)(=O)C4CC4)c3)n2)cc1N1CCC(C)(CO)CC1 (stereo not shown) [Example 438] : 6420 nM

The recorded IC50 for entry CC1(CO)CCN(c2cc(Nc3ccnc(-c4cnn(S(=O)(=O)C5CC5)c4)n3)ncc2C#Cc2cn(CC(F)F)c3ccncc23)CC1 [Example 249] equals > 10000 nM

Sample Cn1cc(C#Cc2cnc(Nc3ccnc(-c4cnn(S(=O)(=O)C5CC5)c4)n3)cc2N2CCC(NCC3CC3)CC2)cn1 [Example 124] ; IC50 observed: > 10000 nM

Quick note, IC50 for CN(C)CC1(O)CCN(c2cc(Nc3ccnc(-c4cnn(S(=O)(=O)C5CC5)c4)n3)ncc2C#Cc2cnn(C3CC3)c2)CC1 [Example 316] landed at > 10000 nM

compound Cn1cc(C#Cc2cnc(Nc3ccnc(-c4cnn(S(=O)(=O)C5CC5)c4)n3)cc2N2CCC(CO)C2)cn1 (stereo not shown) [Example 33] , IC50 observed: > 10000 nM

IC50 reported for this compound O=S(=O)(C1CC1)n1cc(-c2nccc(Nc3cc(N4CCC(CCO)CC4)c(C#Cc4cnn(CCF)c4)cn3)n2)cn1 [Example 17] : > 10000 nM

According to the records, this compound CC(C)CCNC1CCN(c2cc(Nc3ccnc(-c4cnn(S(=O)(=O)C5CC5)c4)n3)ncc2C#Cc2cnn(C)c2)CC1 [Example 125] displays IC50 of > 10000 nM

The reported IC50 of the compound O=S(=O)(C1CC1)n1cc(-c2nccc(Nc3cc(N[C@H]4CCC[C@@H](O)C4)c(C#Cc4ccc(CN5CCOCC5)cc4)cn3)n2)cn1 [Example 159] was > 10000 nM

Entry Cn1cc(C#Cc2cnc(Nc3ccnc(-c4cnn(S(=O)(=O)C5CC5)c4)n3)cc2N2CCC(NCCO)CC2)cn1 [Example 131] ; IC50 = > 10000 nM

***
The compound listed as CS(=O)(=O)N1CCC(C#Cc2cnc(Nc3ccnc(-c4cnn(S(=O)(=O)C5CC5)c4)n3)cc2N[C@H]2CC[C@@H](CO)CC2)CC1 [Example 387] shows IC50 equal to > 10000 nM

Recorded result, CS(=O)(=O)N1CCC(C#Cc2cnc(Nc3ccnc(-c4cnn(S(=O)(=O)C5CC5)c4)n3)cc2NCC2CCC(O)CC2)C1 (stereo not shown) [Example 398] , IC50: > 10000 nM

The reported IC50 of the compound CN(C)CCC1CCN(c2cc(Nc3ccnc(-c4cnn(S(=O)(=O)C5CC5)c4)n3)ncc2C#CC2CCN(C(=O)C(F)(F)F)C2)CC1 (stereo not shown) [Example 413] was 2910 nM
